Hey, just so you know, these numbers are from ChEMBL document CHEMBL6177981.

Test system: HT-29
assay.info: Anti-necroptotic activity in TSZ-induced human HT-29 cells assessed as increase in cell viability preincubated with Z-VAD-FMK and SM164 for 30 mins followed by TNFalpha stimulation for 12 hrs and measured after compound addition by CellTiter-Lumi luminescent cell viability assay
Assay type: functional, cell-based
Here, each record is paired with measured pEC50 data.
The quantity pEC50 is defined as the negative base-10 logarithm of the molar concentration.

smiles.repr	observed.value
CC1(C)CC[C@]2(C(=O)Nc3ccc4ncoc4c3)CC[C@]3(C)[C@H](C(=O)C=C4[C@@]5(C)C=C(C#N)C(=O)C(C)(C)[C@@H]5CC[C@]43C)[C@@H]2C1	5.70
CC1(C)CC[C@]2(C(=O)Nc3ccc4ncsc4c3)CC[C@]3(C)[C@H](C(=O)C=C4[C@@]5(C)C=C(C#N)C(=O)C(C)(C)[C@@H]5CC[C@]43C)[C@@H]2C1	5.45

Let us move to another entry and its pEC50.
Query: Which pEC50 value belongs to CC1(C)CC[C@]2(C(=O)NC3(c4ccccc4)CC3)CC[C@]3(C)[C@H](C(=O)C=C4[C@@]5(C)C=C(C#N)C(=O)C(C)(C)[C@@H]5CC[C@]43C)[C@@H]2C1 ?
Response: 5.68
